# TESTED_ON: Recombinant human c-Met Fc chimera (human) (UniProt P08581)
# PROCEDURE_DETAILS: HGF competition on coated c-Met Fc chimera, competitor biotinylated HGF
REPORTED_PROPERTY: IC50
Give the figure together with its unit, number first.

As a guide, the following entries are already answered.
P114AR7P93-H9 (designed binder, not shown: small tags and cut ends) LPAPKNLVVSRVTEDSARLSWTAPDAAFDSFWIRYFEFLGSGEAIVLTVPGSERSYDLTGLKPGTEYVVQIIGVKGGHISLPLSAIFTT	2.9 nM
P114AR7P94-E5 (designed binder, not shown: small tags and cut ends) LPAPKNLVVSRVTEDSARLSWTAPDAAFDSFWIRYFEFLGSGEAIVLTVPGSERSYDLTGLKPGTEYAVNIMGVKGGRVSVPLSAIFTT	0.7 nM
P114AR7P95-F10 (designed binder, not shown: small tags and cut ends) LPAPKNLVVSRVTEDSARLSWTAPDAAFDSFWIRYFEFTTAGEAIVLTVPGSERSYDLTGLKPGTEYVVNIMGVKGGSISPPLSAIFTT	1.4 nM
P114AR7P94-A3 (designed binder, not shown: small tags and cut ends) LPAPKNLVVSRVTEDSARLSWTAPDAAFDSFWIRYFEFLGSGEAIVLTVPGSERSYDLTGLKPGTEYVVNIMGVKGGKISPPLSAIFTT	0.2 nM

In the following, a different binder is considered.
Asked: Given P114AR5P74-A5 (designed binder, not shown: small tags and cut ends) LPAPKNLVVSRVTEDSARLSWTAPDAAFDSFWIRYDEVVVGGEAIVLTVPGSERSYDLTGLKPGTEYYVNILGVKGGSISVPLSAIFTT , respond with its IC50.
Given back: 5.2 nM
